# target: K507A-CHC^ankle (human, UniProt Q00610 358-574, K507A)
# Sequence (Q00610 358-574 K507A): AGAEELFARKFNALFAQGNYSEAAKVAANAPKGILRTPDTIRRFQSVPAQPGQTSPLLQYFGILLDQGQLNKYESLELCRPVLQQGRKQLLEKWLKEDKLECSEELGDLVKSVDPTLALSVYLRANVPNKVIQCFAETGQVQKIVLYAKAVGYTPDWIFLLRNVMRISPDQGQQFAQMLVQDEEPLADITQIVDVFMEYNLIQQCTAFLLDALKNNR
# testProtocol: FP
Non-standard residues stand in square brackets, D forms with d. No end group written: not given here. pS = N[C@@H](COP(=O)(O)O)C(=O)O; FAM = 5(6)-carboxyfluorescein
measurementLabel: Kd (µM)
Number only, in µM; omit the unit.

INPUT: Need Kd, item {FAM}-FKESALRKQ[pS]LYLKFDPLLRDS [FAM-pTACC3 CID peptide (aa 549–570), phosphorylated at S558]
OUTPUT: 22
